Values from the supplement of paper PMC10567573

- Assay Explanation: protein stability index of a GFP-peptide fusion (GPS, HEK-293T) (PSI 1-6); higher = more stable;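 further: 24-mer peptide tiles fused after GFP, lentivirally expressed, FACS-sorted into six equal bins by GFP/DsRed ratio, decoded by Illumina sequencing, PSI is the read-weighted mean bin number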
- Stated Conditions: treatment: MLN4924 1 uM, 8 h; c terminus: a fixed tail appended
Endpoint Label: protein stability index
// no unit, no text: just the number

Consider the sequence WCLRVNPKGLDDESKDYLSLYLLL [SPOPL] and give its recorded protein stability index.
3.08

Complete the entry with protein stability index for SYWEDLRKQARQLENELDLKLVSF [GOSR1]
2.57

Identify measured protein stability index associated with FDVGGQRSERKKWIHCFEGVTAII [GNAI1]
1.95

Give a short answer stating reported protein stability index for LDSEKRTPLHVAAFLGDAEIIELL [ANKRD44] .
3.03

Retrieve protein stability index measured for SFPPSLSSSSSSSPTSGSPRGSHS [LURAP1L] and print it.
5.01

Using known records, supply protein stability index for ALSEQKAQDLGELLATAEQEQLSL [LRRC45]
5.27

Give recorded protein stability index. DPNTRPVGEKNCTGPPCDRQWTVS [ADAMTSL2]
4.86

Provide only the value of recorded protein stability index for PSTASLLLCPGGLDHKLNLRGKAW [TIAF1]
2.87

Dear colleague, please send me the reported protein stability index for VQKRARSGPQPRLPPCLLPLSPPT [TRIB3] when you can.
3.46

Write down protein stability index measured for item LEAAEALLTLRNSAQAPPDSISLH [DMRTC1]
4.27

Fill in protein stability index for record LWSLFVPFTVYQVRWLRPVHRQLG [AUP1]
2.59

Complete the entry with protein stability index for ASSGGAGAAVGTGSSYPTTTISYL [JUNB]
2.79

Give protein stability index for GASVRGLHPVQKVILNYPSPWDQE [TRAF3IP2]
4.1

Output protein stability index of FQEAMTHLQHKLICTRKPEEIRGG [TENT5D]
3.29
